Values from patent US20250101041A1

Biological target: human mAChR M4 (Homo sapiens)
Sequence (P08173 1-479): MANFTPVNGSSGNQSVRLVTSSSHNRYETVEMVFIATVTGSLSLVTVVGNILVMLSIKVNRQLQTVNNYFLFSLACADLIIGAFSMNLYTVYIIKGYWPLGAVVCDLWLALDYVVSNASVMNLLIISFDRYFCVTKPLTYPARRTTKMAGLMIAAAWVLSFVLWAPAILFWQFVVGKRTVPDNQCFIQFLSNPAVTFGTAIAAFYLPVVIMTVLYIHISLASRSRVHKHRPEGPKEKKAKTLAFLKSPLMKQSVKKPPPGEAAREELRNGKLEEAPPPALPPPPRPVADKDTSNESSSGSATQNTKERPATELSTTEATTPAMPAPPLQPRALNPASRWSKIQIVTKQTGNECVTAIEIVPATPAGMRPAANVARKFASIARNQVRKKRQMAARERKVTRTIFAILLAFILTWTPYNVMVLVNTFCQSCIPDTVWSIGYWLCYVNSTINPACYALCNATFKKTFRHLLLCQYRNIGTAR
Experiment: mAChR M4 cell-based functional assay: calcium mobilization (Fluo-4, FDSS), potentiation of EC20 acetylcholine response in hM4-Gqi5 CHO-K1 cells
Details: potentiation of EC20 acetylcholine response, calcium mobilization, human M4
Experimental: […] Calcium flux was measured using the Functional Drug Screening System (FDSS) 6000 or 7000 (Hamamatsu Corporation, Tokyo, Japan) as an increase in the fluorescent static ratio. […] Agonist activity was analyzed as a concentration-dependent increase in calcium mobilization upon compound addition. Positive allosteric modulator activity was analyzed as a concentration-dependent increase in the EC20 acetylcholine response. […]
Examples of compounds with documented EC50 follow.

> print(dat)
                                    compound  measvalue
 1  Cc1cc(=O)n2nc(N3CCc4ncc(-c5ccncc5C)cc4C3)c(C)cc2n1     228 nM
 2  COc1ccc(-c2cnc3c(c2)CN(c2nn4c(=O)cc(C(F)F)nc4c(C)c2C)CC3)cn1     185 nM
 3  Cc1cc2nccn2cc1-c1cnc2c(c1)CN(c1nn3c(=O)ccnc3c(C)c1C)CC2     563 nM
 4  Cc1cc(=O)n2nc(N3CCc4ncc(-c5cnn(C6CC6)c5)cc4C3)c(C)c(C)c2n1     582 nM
 5  Cc1cc2nccc(=O)n2nc1N1CCc2ncc(-c3ccccc3C(C)(F)F)cc2C1    1250 nM
 6  Cc1cc2nccc(=O)n2nc1N1CCc2ncc(N3CCOc4cc(F)ccc43)cc2C1      14 nM
 7  COc1ccsc1-c1cnc2c(c1)CN(c1nn3c(=O)cc(C)nc3cc1C)CC2      83 nM
 8  Cc1cc2nc(C(F)(F)F)cc(=O)n2nc1N1CCc2ncc(C(F)(F)F)cc2C1     105 nM
 9  Cc1cc2nc(C)c(F)c(=O)n2nc1N1CCc2ncc(N3CCCn4nccc43)cc2C1      17 nM
10  Cc1cc2nccc(=O)n2nc1N1CCc2ncc(-c3cccc(Cl)c3C)cc2C1     606 nM

# EC50 lookup, item `Cc1ccc(F)cc1-c1cnc2c(c1)CN(c1nn3c(=O)ccnc3cc1C)CC2` 63 nM

# EC50 lookup, item `Cc1cc2nccc(=O)n2nc1N1CCc2ncc(Nc3cccc4c3OCCO4)cc2C1` 549 nM

# EC50 lookup, item `Cc1cc2ncc(-c3ccccc3)c(=O)n2nc1N1CCc2ncc(C(F)(F)F)cc2C1` 136 nM

# EC50 lookup, item Cc1cc2nccc(=O)n2nc1N1CCc2ncc(N3c4ccc(F)cc4OCC3C)cc2C1 (centres unmarked) 16 nM

# EC50 lookup, item `Cc1cc(=O)n2nc(N3CCc4ncc(-c5cc(F)ncc5F)cc4C3)c(C)c(C)c2n1` 498 nM

# EC50 lookup, item `COCc1cc(=O)n2nc(N3CCc4ncc(-c5cnccn5)cc4C3)c(C)c(C)c2n1` 20 nM

# EC50 lookup, item `Cc1cc2nc(C(F)F)cc(=O)n2nc1N1CCc2ncc(N3CCCn4nccc43)cc2C1` 22 nM

# EC50 lookup, item `COCc1c(N2CCc3ncc(-c4ccc(C)nc4)cc3C2)nn2c(=O)ccnc2c1C` 70 nM

# EC50 lookup, item `COCc1c(N2CCc3ncc(C(F)(F)F)cc3C2)nn2c(=O)ccnc2c1C` 33 nM

# EC50 lookup, item `Cc1cc2nccc(=O)n2nc1N1CCc2ncc(-c3ccccc3C3(C#N)CC3)cc2C1` 3900 nM

# EC50 lookup, item `COc1ccncc1-c1cnc2c(c1)CN(c1nn3c(=O)cc(C(F)F)nc3c(C)c1C)CC2` 156 nM

# EC50 lookup, item `Cc1cc(=O)n2nc(N3CCc4ncc(-c5cnn(C6CCOCC6)c5)cc4C3)c(C)c(C)c2n1` 1410 nM
